Method description: CCTE_Shafer_MEA_dev_LDH: CCTE's Lactate Dehydrogenase Assay for Cytotoxicity in the Neural Network Formation Assay, Shafer Lab (AID 2284068);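 also: exposure for twelve days from plating with re-dosing on DIV 5 and 9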
Records with an inconclusive call do not appear. Calls of active or inactive are those of the source. The calls were made as follows: active = hit-call score of the fitted dose curve at least 0.9, where 1 is the maximum; inconclusive = response in the unintended direction; inactive = score below 0.9.
Outcome codes: yes for active, no for inactive

CCCCOCCOCCOCc1cc2c(cc1CCC)OCO2    yes
Oc1ccc(C(c2ccc(O)cc2)C(Cl)(Cl)Cl)cc1    no
O=C(O)c1ccccc1    no
S=C([S-])NCCNC(=S)[S-].[Mn+2]    no
Cc1nn(C)c(Oc2ccccc2)c1C=NOCc1ccc(C(=O)OC(C)(C)C)cc1    yes
CC(C)(c1ccc(O)cc1)c1ccc(O)cc1    no
CCCCC(CC)CN1C(=O)C2C3C=CC(C3)C2C1=O (stereo not drawn)    no
COCCO    no

----------
Method description: BSK_SAg_Proliferation: Cell Proliferation Assessment in the BioMAP Diversity Plus: SAg Assay (AID 2283095);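 also: relative cell number as total protein by SRB absorbance in sub-confluent culture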
Test context: primary human HUVEC with PBMC
Activity calls are given as the source filed them. How the source made its calls: active means hit-call score of the fitted dose curve at least 0.9, where 1 is the maximum; inactive means score below 0.9.
Reported property: AC50

CN(C)C(=O)Nc1ccc(Cl)c(Cl)c1    inactive
O=C(O)c1ccccc1    inactive
O=C(O)C1(C(=O)Nc2ccc(Cl)cc2Cl)CC1    12.3 µM (active)
CCOC(=O)NCCOc1ccc(Oc2ccccc2)cc1    16.2 µM (active)

----------
Read-out: sulfotransferase 2A1 (SULT2A1), SULT2A1 (gene 6822)
Method description: LTEA_HepaRG_SULT2A1: Life Technologies and Expression Analysis (LTEA) Assay for sulfotransferase 2A1 (SULT2A1) using HepaRG (AID 2283531)
Test context: mRNA level, 48 h; actives raise or lower the signal
Active and inactive are the calls of the source. The calls were made as follows: active = hit-call score of the fitted dose curve at least 0.9, where 1 is the maximum; inactive = score below 0.9.
Reported property: AC50

CCCCC(CC)CN1C(=O)C2C3C=CC(C3)C2C1=O (configuration not stated)    86.1 µM (active)
C#C[C@]1(O)CC[C@H]2[C@@H]3CCC4=CC(=O)CC[C@@H]4[C@H]3CC[C@@]21CC    inactive
C#CCOC(=O)[C@@H](C)Oc1ccc(Oc2ncc(Cl)cc2F)cc1    inactive
S=C([S-])NCCNC(=S)[S-].[Mn+2]    3.76 µM (active)
CC1(C)C(C=C(Cl)Cl)C1C(=O)OCc1cccc(Oc2ccccc2)c1 (configuration not stated)    inactive
O=C(O)c1ccccc1    inactive
COC(=O)CSc1cc(N=c2sc(=O)n3n2CCCC3)c(F)cc1Cl    inactive
CCCOC(=O)NCCCN(C)C    inactive
O=C(O)C1(C(=O)Nc2ccc(Cl)cc2Cl)CC1    87.4 µM (active)
CCC(C)OC(=O)N1CCCCC1CCO (configuration not stated)    inactive
CCCN(CCC)c1c([N+](=O)[O-])cc(C(F)(F)F)c(N)c1[N+](=O)[O-]    inactive
CCNc1nc(N)nc(Cl)n1    inactive

----------
Method description: LTEA_HepaRG_LDH_cytotoxicity: Cytotoxicity Assessment in the Life Technologies and Expression Analysis (LTEA) Assay (AID 2283563)
Calls of active or inactive are those of the source. The calls were made as follows: active = hit-call score of the fitted dose curve at least 0.9, where 1 is the maximum; inconclusive = response in the unintended direction; inactive = score below 0.9.
Labels: true (active), false (inactive)

CC(=O)S[C@@H]1CC2=CC(=O)CC[C@]2(C)[C@H]2CC[C@@]3(C)[C@@H](CC[C@@]34CCC(=O)O4)[C@H]12    true
CCOC(=O)C(C)Oc1ccc(Oc2cnc3cc(Cl)ccc3n2)cc1 (centres undefined)    false
CCNc1nc(N)nc(Cl)n1    false
CCCN(CCC)c1c([N+](=O)[O-])cc(C(F)(F)F)c(N)c1[N+](=O)[O-]    false
O=C(O)C1(C(=O)Nc2ccc(Cl)cc2Cl)CC1    false
C#CCOC(=O)[C@@H](C)Oc1ccc(Oc2ncc(Cl)cc2F)cc1    false
CCCCOC(=O)C(C)Oc1ccc(Oc2ccc(C(F)(F)F)cn2)cc1 (centres undefined)    false
OB(O)O    false
CC(=O)[C@H]1CC[C@H]2[C@@H]3CCC4=CC(=O)CC[C@]4(C)[C@H]3CC[C@]12C    true
S=C([S-])NCCNC(=S)[S-].[Mn+2]    true
CCCOC(=O)c1ccc(C(=O)OCCC)nc1    false
O=C(Nc1ccc([N+](=O)[O-])cc1Cl)c1cc(Cl)ccc1O    true
COC(=O)c1ccc(I)cc1S(=O)(=O)NC(=O)Nc1nc(C)nc(OC)n1    false
O=C(c1ccc(O)cc1O)c1ccc(O)cc1O    false
N[C@@H](Cc1cc(I)c(Oc2ccc(O)c(I)c2)c(I)c1)C(=O)O    false
CCOC(=O)C(C)Oc1ccc(Oc2nc3ccc(Cl)cc3o2)cc1 (centres undefined)    false
CCCCOCCOCCOCc1cc2c(cc1CCC)OCO2    false
C#C[C@]1(O)CC[C@H]2[C@@H]3CCC4=CC(=O)CC[C@@H]4[C@H]3CC[C@@]21CC    false
CCCOC(=O)NCCCN(C)C    false
CN(C)C(=O)Nc1ccc(Cl)c(Cl)c1    false
CC(C)(C)[C@@H](O)[C@@H](Cc1ccc(Cl)cc1)n1cncn1    false
CCCCC(CC)COC(=O)c1ccccc1C(=O)O (centres undefined)    false
CCN(CC)C(=O)c1cccc(C)c1    false
CCOC(=O)COc1cc(-n2ncc(C(F)(F)F)c(C)c2=O)c(F)cc1Cl    false

----------
Read-out: Monocyte Chemoattractant Protein-1 (MCP1), CCL2 (gene 6347)
Method description: BSK_4H_MCP1: BioMAP Diversity Plus: 4H Assay for Monocyte Chemoattractant Protein-1 (MCP1) Biomarker Activity (AID 2283018)
Test context: primary human endothelial cells (HUVEC); actives raise or lower the signal
Method: BSK_4H is a cell-based, multiplexed-readout assay that uses umbilical vein endothelium, a human vascular primary cell, with measurements taken at 24 hours after chemical dosing in a 96-well plate.BSK_4H_MCP1 is an assay component measured in the BSK_4H assay. It measures MCP-1 antibody related to regulation of gene expression using ELISA technology.Data from the assay component BSK_4H_MCP1 was analyzed into 1 assay endpoint. […]
The source made the active and inactive calls. The calls were made as follows: active = hit-call score of the fitted dose curve at least 0.9, where 1 is the maximum; inactive = score below 0.9.
Outcomes: active, inactive

COC(=O)CSc1cc(N=c2sc(=O)n3n2CCCC3)c(F)cc1Cl    inactive
CCC(C)OC(=O)N1CCCCC1CCO (stereo not given)    inactive
COc1c(Cl)ccc(Cl)c1C(=O)O    inactive
c1ccc2[nH]c(-c3cscn3)nc2c1    inactive
CCOC(=O)COc1cc(-n2ncc(C(F)(F)F)c(C)c2=O)c(F)cc1Cl    inactive
CCCOC(=O)c1ccc(C(=O)OCCC)nc1    inactive
COC(=O)c1cccc(C)c1S(=O)(=O)NC(=O)Nc1nc(OCC(F)(F)F)nc(N(C)C)n1    inactive
S=C([S-])NCCNC(=S)[S-].[Mn+2]    inactive
CC(=O)S[C@@H]1CC2=CC(=O)CC[C@]2(C)[C@H]2CC[C@@]3(C)[C@@H](CC[C@@]34CCC(=O)O4)[C@H]12    active
Cc1nn(C)c(Oc2ccccc2)c1C=NOCc1ccc(C(=O)OC(C)(C)C)cc1    active
CC(=O)[C@H]1CC[C@H]2[C@@H]3CCC4=CC(=O)CC[C@]4(C)[C@H]3CC[C@]12C    active
COc1nc(C)nc(NC(=O)NS(=O)(=O)c2ccccc2OCCCl)n1    inactive
CN(C)C(=O)Nc1ccc(Cl)c(Cl)c1    inactive
CCOC(=O)c1ccc(O)cc1    inactive
CCN(CC)C(=O)c1cccc(C)c1    inactive
CCCCOCCOCCOCc1cc2c(cc1CCC)OCO2    inactive
CC1(C)C(C=C(Cl)Cl)C1C(=O)OCc1cccc(Oc2ccccc2)c1 (stereo not given)    inactive
CCCOC(=O)NCCCN(C)C    inactive
O=C(O)C1(C(=O)Nc2ccc(Cl)cc2Cl)CC1    inactive
OB(O)O    inactive
S=C(S)NCCNC(=S)S.[Mn+2].[S-]C([S-])=NCCN=C([S-])[S-].[Zn+2]    inactive
CC(C)(c1ccc(O)cc1)c1ccc(O)cc1    inactive
CCNc1nc(N)nc(Cl)n1    inactive
CCOC(=O)NCCOc1ccc(Oc2ccccc2)cc1    active
C#C[C@]1(O)CC[C@H]2[C@@H]3CCC4=CC(=O)CC[C@@H]4[C@H]3CC[C@@]21CC    inactive

----------
Read-out: CD40, CD40 (gene 958)
Method description: BSK_SAg_CD40: BioMAP Diversity Plus: SAg Assay for CD40 Biomarker Activity (AID 2283088)
Test context: primary human HUVEC with PBMC; actives raise or lower the signal
The source made the active and inactive calls. Rule for the calls: active = hit-call score of the fitted dose curve at least 0.9, where 1 is the maximum; inactive = score below 0.9.
Reported property: AC50

CCOC(=O)C(C)Oc1ccc(Oc2cnc3cc(Cl)ccc3n2)cc1 (stereo unspecified)    inactive
COC(=O)c1c(Cl)nn(C)c1S(=O)(=O)NC(=O)Nc1nc(OC)cc(OC)n1    inactive
O=C(c1ccccc1)C1CCCCC1    inactive
O=C(c1ccc(O)cc1O)c1ccc(O)cc1O    inactive
CCN(CC)C(=O)c1cccc(C)c1    inactive
CCNc1nc(N)nc(Cl)n1    inactive
CCCCCCC(C)OC(=O)COc1nc(F)c(Cl)c(N)c1Cl (stereo unspecified)    29.5 µM (active)
CCCOC(=O)NCCCN(C)C    inactive
CC(=O)S[C@@H]1CC2=CC(=O)CC[C@]2(C)[C@H]2CC[C@@]3(C)[C@@H](CC[C@@]34CCC(=O)O4)[C@H]12    20 µM (active)
CCOC(=O)c1ccc(O)cc1    inactive
S=C([S-])NCCNC(=S)[S-].[Mn+2]    inactive
O=C(Nc1ccc([N+](=O)[O-])cc1Cl)c1cc(Cl)ccc1O    0.17 µM (active)
CCCCOC(=O)C(C)Oc1ccc(Oc2ccc(C(F)(F)F)cn2)cc1 (stereo unspecified)    inactive
CC(C)CCCCCCc1ccc(O)cc1    8.59 µM (active)
CCCN(CCC)C(=O)SCC    inactive
CCOC(=O)C(C)Oc1ccc(Oc2nc3ccc(Cl)cc3o2)cc1 (stereo unspecified)    12 µM (active)
COCCO    inactive
CCOC(=O)COc1cc(-n2ncc(C(F)(F)F)c(C)c2=O)c(F)cc1Cl    inactive
CCCCOC(=O)[C@@H](C)Oc1ccc(Oc2ccc(C(F)(F)F)cn2)cc1    inactive
COC(=O)c1ccc(I)cc1S(=O)(=O)NC(=O)Nc1nc(C)nc(OC)n1    inactive
CN(C)C(=O)Nc1ccc(Cl)c(Cl)c1    inactive
CCCN(CCC)c1c([N+](=O)[O-])cc(C(F)(F)F)c(N)c1[N+](=O)[O-]    28.9 µM (active)
CC1(C)C(C=C(Cl)Cl)C1C(=O)OCc1cccc(Oc2ccccc2)c1 (stereo unspecified)    inactive
C=CCOC(Cn1ccnc1)c1ccc(Cl)cc1Cl (stereo unspecified)    inactive
CCC(C)OC(=O)N1CCCCC1CCO (stereo unspecified)    inactive
CCOC(=O)[C@H](C)Oc1ccc(Oc2nc3ccc(Cl)cc3o2)cc1    inactive
